Values were extracted from patent US20240391954A1.

tested-target: human MC4R receptor (human, UniProt P32245 1-332)
Sequence (P32245 whole entry): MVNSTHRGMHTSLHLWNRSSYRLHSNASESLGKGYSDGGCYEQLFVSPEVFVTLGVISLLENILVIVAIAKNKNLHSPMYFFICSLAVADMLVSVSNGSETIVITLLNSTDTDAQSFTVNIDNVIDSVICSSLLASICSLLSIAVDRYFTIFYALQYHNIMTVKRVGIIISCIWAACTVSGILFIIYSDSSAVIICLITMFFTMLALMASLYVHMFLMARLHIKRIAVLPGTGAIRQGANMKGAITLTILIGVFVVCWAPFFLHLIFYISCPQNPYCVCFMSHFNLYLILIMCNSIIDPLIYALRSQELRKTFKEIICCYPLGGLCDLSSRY
test-description: cell-based or functional assay
Positions of bridges follow the written chain, without caps; N, C: chain ends. Non-standard residues stand in square brackets, D forms with d. 2Pal = N[C@@H](Cc1ccccn1)C(=O)O; Cit = NC(=O)NCCC[C@H](N)C(=O)O; Aib = CC(C)(N)C(=O)O
MC4R selectivity vs MC1R values by entry
The reply should be a number, written without any unit.

INSERT INTO measurements (binder, measured_attribute, recorded_value) VALUES
  ('Ac-RC[dA][Cit][dF]R[dW]C-NH2 (disulfide 2-8) [CTX-1286]', 'MC4R selectivity vs MC1R', 3.4);

Short answer for Ac-RC[Aib][2Pal][dF]RFC-NH2 (disulfide 2-8; SMILES CC(=O)N[C@@H](CCCNC(=N)N)C(=O)N[C@H]1CSSC[C@@H](C(N)=O)NC(=O)[C@H](Cc2ccccc2)NC(=O)[C@H](CCCNC(=N)N)NC(=O)[C@@H](Cc2ccccc2)NC(=O)[C@H](Cc2ccccn2)NC(=O)C(C)(C)NC1=O) [CTX-1604] : MC4R selectivity vs MC1R was 3.66

Per the record, {CH2CO}-[Aib]R[dF]RFC-NH2 (thioether N-6; SMILES CC1(C)NC(=O)CSC[C@@H](C(N)=O)NC(=O)[C@H](Cc2ccccc2)NC(=O)[C@H](CCCNC(=N)N)NC(=O)[C@@H](Cc2ccccc2)NC(=O)[C@H](CCCNC(=N)N)NC1=O) [CTX-1651] has MC4R selectivity vs MC1R of 1.45

Record Ac-RC[Aib]R[dF]RFC-NH2 (disulfide 2-8) [CTX-1601] , field MC4R selectivity vs MC1R: 0.93
